Hey, just so you know, these numbers are from paper PMC12243099.

Test system: PNT1A
Experiment: Crystal violet proliferation assay, PNT1A
Assay type: cell-based
Conditions: Homo sapiens, non-tumorigenic, 72 h treatment, mean
Each record here notes measured pIC50.
Units for pIC50: none; it is -log10 of a concentration expressed in mol/L.

The cases that follow already have their pIC50 on record.
smiles-repr | study-system | pIC50
COc1cccc(NC(=O)c2sc3nc4c(cc3c2N)C(=O)CCC4)c1 | PNT1A | 6.62
Nc1c(C(=O)Nc2cccc(Br)c2)sc2nc3c(cc12)C(=O)CCC3 | PNT1A | 6.15
Nc1c(C(=O)Nc2cccc(Cl)c2)sc2nc3c(cc12)C(=O)CCC3 | PNT1A | 6.49

Task item: Which pIC50 value is on record for `Nc1c(C(=O)Nc2cccc(Cl)c2)sc2nc3c(cc12)CCCC3` ?
Reply: 6.04

Task item: Again, but for `Cc1c(Cl)cccc1NC(=O)c1sc2nc3c(cc2c1N)C(=O)CCC3`
Reply: 7.08
